Test system: DMS-273
assay.procedure: NCI tumour cell line growth inhibition, 48 h
Activity calls are given as the source filed them. Rule as the data show it: active = GI50 up to about 1.1 µM and inactive = higher.
# valid calls are y = active, n = inactive; nothing else

Q: Record request — test call for `CC(C)N1CC2CC(CN(C(=O)c3ccc(Cl)cc3)C2)C1`
Ans: n

Q: What did this assay record as the result for `COc1c(Cl)c(Cl)c(OC)c2c1C(=O)C=CC2=O` ?
Ans: n

Q: Entry O=C1NC(O)CCN1C1OC(CO)C(O)C1O (stereo unspecified) : call = ?
Ans: n

Q: What did this assay record as the result for OC1CCOc2ccccc21 (stereo unspecified) ?
Ans: n

Q: In this assay, the call recorded for C=C1C(=O)OC2C1C(OC(=O)/C(=C/C)COC(C)=O)CC1(CO1)C1C(OC(=O)/C(=C/C)CO)C=C(C)C21 (stereo unspecified) was what?
Ans: n

Q: Identify the outcome logged in this assay for the molecule shown: `COc1ccc2nc(NC(=O)C(=O)CC(=O)c3ccc([N+](=O)[O-])cc3)sc2c1`
Ans: n

Q: Recorded call for `CCCC(=O)Oc1ccc(/C=N/NC(N)=S)nc1` ?
Ans: n

Q: Given `O=C1N[C@H]2[C@H](O)[C@H](O)[C@@H](O)[C@H](O)[C@@H]2c2cc3c(c(O)c21)OCO3` , state the outcome it received in this test.
Ans: y

Q: Check the results log: what was the call for `O=c1c2cc(Cl)ccc2sc2cccc(Cl)c12` ?
Ans: n

Q: Could you please tell me the result logged for `CC[C@]1(O)C(=O)OCc2c1cc1n(c2=O)Cc2cc3c(N)cccc3nc2-1` in this assay?
Ans: n

Q: Entry COc1ccc2[nH]cc(CCNC(=O)[C@](O)(Cc3cn(C)c4ccccc34)[C@@]3(O)OCC(O)C3O)c2c1 (stereo partly specified) : call = ?
Ans: n

// provenance: ChEMBL document CHEMBL1201862
